Hello, the source for this data is patent US9650405B2, in case you need it.

For each of the compounds below, state its Average droplet size.
# protocol-details: Emulsion droplet size distribution, Coulter LS 230 analyzer
# Type: physicochemical
# measurement-context: paraffin oil-to-water 7:3 v/v, 2 weight %, 24 hours, 25° C.
Please state the figure in μm; there is no need to write the unit.

Query: # Average droplet size lookup, item CCCCNC(=O)CCCCCCCC=CCCCCCCC(C)OC1OC(CO)C(O)C(O)C1OC1OC(CO)C(O)C(O)C1O (stereo not shown) [Compound 24, SL-Butyl Amide]
Result: 1.9

Query: What do we get for CCCCCCCCCCCCOS(=O)(=O)[O-].[Na+] [SDS, Sodium dodecyl sulfate, reference compound] ?
Result: 1.6

Query: What do we get for CCCCCCNC(=O)CCCCCCCC=CCCCCCCC(C)OC1OC(CO)C(O)C(O)C1OC1OC(CO)C(O)C(O)C1O (stereo not shown) [Compound 25, SL-Hexyl Amide] ?
Result: 1.7

Query: What do we get for CCCCCCOC(=O)CCCCCCCC=CCCCCCCC(C)OC1OC(CO)C(O)C(O)C1OC1OC(CO)C(O)C(O)C1O (stereo not shown) ?
Result: 1.7

---

# protocol-details: Crude oil clearing/displacement activity
# measurement-context: Prudhoe Bay Crude on sea water, 20 μL of 1 mg/mL solution
For each of the molecules below, state its Oil displacement activity (diameter of the clearing zone).
Please state the figure in cm; there is no need to write the unit.

Query: # Oil displacement activity (diameter of the clearing zone) lookup, item COC(=O)CCCCCCCC=CCCCCCCC(C)OC1OC(CO)C(O)C(O)C1OC1OC(CO)C(O)C(O)C1O (stereo not shown)
Result: 6.9

Query: What do we get for CCOC(=O)CCCCCCCC=CCCCCCCC(C)OC1OC(CO)C(O)C(O)C1OC1OC(CO)C(O)C(O)C1O (stereo not shown) ?
Result: 6.6

Query: What do we get for CCCCOC(=O)CCCCCCCC=CCCCCCCC(C)OC1OC(CO)C(O)C(O)C1OC1OC(CO)C(O)C(O)C1O (stereo not shown) ?
Result: 7.5

Query: What do we get for CCCCCCCCCCCCOS(=O)(=O)[O-].[Na+] [SDS, Sodium dodecyl sulfate, reference compound] ?
Result: 1.2

---

# protocol-details: Crude oil clearing/displacement activity
# measurement-context: Arabian Light Crude on sea water, 20 μL of 1 mg/mL solution
value-type: Oil displacement activity (diameter of the clearing zone) (cm)
Please state the figure in cm; there is no need to write the unit.

Query: # Oil displacement activity (diameter of the clearing zone) lookup, item CCOC(=O)CCCCCCCC=CCCCCCCC(C)OC1OC(CO)C(O)C(O)C1OC1OC(CO)C(O)C(O)C1O (stereo not shown)
Result: 6.5

Query: What do we get for CCCCCCCCCCCCOS(=O)(=O)[O-].[Na+] [SDS, Sodium dodecyl sulfate, reference compound] ?
Result: 0.65

Query: What do we get for COC(=O)CCCCCCCC=CCCCCCCC(C)OC1OC(CO)C(O)C(O)C1OC1OC(CO)C(O)C(O)C1O (stereo not shown) ?
Result: 5.5

Query: What do we get for CCCCOC(=O)CCCCCCCC=CCCCCCCC(C)OC1OC(CO)C(O)C(O)C1OC1OC(CO)C(O)C(O)C1O (stereo not shown) ?
Result: 6.7

---

# protocol-details: Emulsion droplet size distribution, Coulter LS 230 analyzer
# Type: physicochemical
# measurement-context: paraffin oil-to-water 7:3 v/v, 0.5 weight %, 24 hours, 25° C.
For each of the molecules below, state its Average droplet size.
Please state the figure in μm; there is no need to write the unit.

Query: # Average droplet size lookup, item CCCCCCCCCCCCOS(=O)(=O)[O-].[Na+] [SDS, Sodium dodecyl sulfate, reference compound]
Result: 2.3

Query: What do we get for CCCCCCOC(=O)CCCCCCCC=CCCCCCCC(C)OC1OC(CO)C(O)C(O)C1OC1OC(CO)C(O)C(O)C1O (centres unmarked) ?
Result: 2.3

Query: What do we get for CCCCOC(=O)CCCCCCCC=CCCCCCCC(C)OC1OC(CO)C(O)C(O)C1OC1OC(CO)C(O)C(O)C1O (centres unmarked) ?
Result: 2.5

Query: What do we get for CCCCCCNC(=O)CCCCCCCC=CCCCCCCC(C)OC1OC(CO)C(O)C(O)C1OC1OC(CO)C(O)C(O)C1O (centres unmarked) [Compound 25, SL-Hexyl Amide] ?
Result: 2.7

Query: What do we get for CCCCNC(=O)CCCCCCCC=CCCCCCCC(C)OC1OC(CO)C(O)C(O)C1OC1OC(CO)C(O)C(O)C1O (centres unmarked) [Compound 24, SL-Butyl Amide] ?
Result: 3.0
